system: HOP-62 NSCLC; assay: NCI tumour cell line growth inhibition, 48 h
Observation Type: TGI

structure_as_smiles=CC(=O)O[C@H](C[C@H](C(C)C)N(C)C(=O)[C@@H](NC(=O)[C@H]1CCCCN1C)C(C)C)c1nc(C(=O)N[C@@H](Cc2ccccc2)C[C@H](C)C(=O)O)c(CCOCc2ccccc2)s1 assayed_system="HOP-62 NSCLC" observation_type=TGI result="> 10 µM"
structure_as_smiles=[Au+].[Au+].[Au+].[c-]1nccn1Cc1ccccc1.[c-]1nccn1Cc1ccccc1.[c-]1nccn1Cc1ccccc1 assayed_system="HOP-62 NSCLC" observation_type=TGI result="28.5 µM"
structure_as_smiles=COc1cccc(-n2c3nc(=O)n(C)c(=O)c-3nc3ccccc32)c1 assayed_system="HOP-62 NSCLC" observation_type=TGI result="> 100 µM"
structure_as_smiles=COC(=O)C1=C2SCc3cccc(c3)CSC3=C(C(=O)OC)SC(=C(S2)S1)S3 assayed_system="HOP-62 NSCLC" observation_type=TGI result="> 100 µM"
structure_as_smiles=O=c1[nH]cnc2cccc(Cl)c12 assayed_system="HOP-62 NSCLC" observation_type=TGI result="> 100 µM"
structure_as_smiles=COC(=O)/C(C)=C/[N+](=O)[O-] assayed_system="HOP-62 NSCLC" observation_type=TGI result="57.9 µM"
structure_as_smiles=Nc1cccc(Nc2nc3ccccc3nc2NS(=O)(=O)c2ccccc2)c1 assayed_system="HOP-62 NSCLC" observation_type=TGI result="96.2 µM"
structure_as_smiles=O=C1c2ccc3c4ccccc4n(Cc4ccccc4)c3c2C(=O)N1c1ccccc1 assayed_system="HOP-62 NSCLC" observation_type=TGI result="> 57.6 µM"
structure_as_smiles=Cc1ccc(S(=O)(=O)OCC(=O)O)cc1 assayed_system="HOP-62 NSCLC" observation_type=TGI result="> 100 µM"

* * *

tested on: SF-539 CNS; test: NCI tumour cell line growth inhibition, 48 h
Quick list: TGI per entry.
Observation Type: TGI

molecule=Nc1nc(SN=Nc2ccc(S(N)(=O)=O)cc2)c2[nH]cnc2n1 assayed_system="SF-539 CNS" observation_type=TGI result="> 100 µM"
molecule="O=C1CC2C(=O)N(Cc3ccccc3)C1C=C2S(=O)(=O)c1ccccc1 (centres undefined)" assayed_system="SF-539 CNS" observation_type=TGI result="> 100 µM"
molecule=C[C@H](N)C(=O)Nc1ccc(-c2nc3ccccc3s2)cc1 assayed_system="SF-539 CNS" observation_type=TGI result="52.3 µM"
molecule="C/C=C/C(O)P1(=O)N(Cc2ccccc2)[C@@H]2CCCC[C@H]2N1Cc1ccccc1 (some centres undefined)" assayed_system="SF-539 CNS" observation_type=TGI result="> 25 µM"
molecule=Cc1ccc2nc(Cl)c(/C=N/N3C(=O)/C(=C/c4ccccc4S)N=C3c3ccccc3)cc2c1 assayed_system="SF-539 CNS" observation_type=TGI result="43 µM"
molecule=Cc1cc(S(=O)(=O)N/N=C(\Sc2cc(Cl)c(C)cc2S(N)(=O)=O)c2ccc(Cl)cc2)c(Cl)cc1Cl assayed_system="SF-539 CNS" observation_type=TGI result="61.5 µM"
molecule=COC(=O)/C(C)=C/[N+](=O)[O-] assayed_system="SF-539 CNS" observation_type=TGI result="33.2 µM"
molecule="CCC(C#N)NC(=O)NC(C#N)CC (centres undefined)" assayed_system="SF-539 CNS" observation_type=TGI result="> 100 µM"
molecule=COc1cc(C)c2c(c1C)OC(=O)c1c(C)c(Cl)c(O)c(C=O)c1O2 assayed_system="SF-539 CNS" observation_type=TGI result="26.6 µM"
molecule=CN(O)C(=O)c1cccc(Cl)c1 assayed_system="SF-539 CNS" observation_type=TGI result="> 100 µM"
molecule=Cc1ccn2c(=O)cc(-c3ccccc3)nc2c1 assayed_system="SF-539 CNS" observation_type=TGI result="> 100 µM"
molecule=CCCCOC(=O)NC(=O)c1cn(CCCOC(=O)NCCCCCCNC(=O)OCCCn2cc(C(=O)NC(=O)OCCCC)c(=O)[nH]c2=O)c(=O)[nH]c1=O assayed_system="SF-539 CNS" observation_type=TGI result="> 100 µM"
molecule=COCCOc1cnc2ccn([C@H](C)c3nnc4c(F)cc(-c5cnn(C)c5)cn34)c(=O)c2c1 assayed_system="SF-539 CNS" observation_type=TGI result="> 100 µM"
molecule=Cc1cc(I)cc(CN(C)CCCN2CCOCC2)c1O assayed_system="SF-539 CNS" observation_type=TGI result="39.4 µM"
molecule=Cc1cc(C)[n+](CCOc2ccc(/C(=C(/Cl)c3ccccc3)c3ccccc3)cc2)c(C)c1 assayed_system="SF-539 CNS" observation_type=TGI result="9.82 µM"
molecule=Nc1ccc(N=Nc2ccccc2)cc1 assayed_system="SF-539 CNS" observation_type=TGI result="> 100 µM"
molecule="C=C1C(=O)CC2C(=O)C(C)(O)CC/C=C(\\C)C(=O)CC12 (centres undefined)" assayed_system="SF-539 CNS" observation_type=TGI result="59.8 µM"
molecule="CN(C)c1ccc(C2SCC(=O)N2NS(=O)(=O)c2cccc(C(=O)O)c2)cc1 (centres undefined)" assayed_system="SF-539 CNS" observation_type=TGI result="> 100 µM"
molecule="Cc1cn(C(Cc2ccccc2)OCCO)c(=O)[nH]c1=O (centres undefined)" assayed_system="SF-539 CNS" observation_type=TGI result="> 100 µM"
molecule=COc1ccc(-c2ccc(/C=N/n3c(C)n[nH]c3=S)o2)c([N+](=O)[O-])c1 assayed_system="SF-539 CNS" observation_type=TGI result="> 100 µM"
molecule=Cc1c(C2=C(Br)C(=O)N(C)C2=O)c(=O)n(C)c(=O)n1C assayed_system="SF-539 CNS" observation_type=TGI result="34.6 µM"
molecule=CCn1c(CO)nn(-c2cc(O[C@@H](C)C(F)(F)F)c(C(=O)Nc3c(F)cccc3Cl)cc2F)c1=O assayed_system="SF-539 CNS" observation_type=TGI result="> 100 µM"
molecule=CC1=NN2C(=N)/C(=C/c3ccco3)C(=O)N=C2S1 assayed_system="SF-539 CNS" observation_type=TGI result="> 100 µM"
molecule=COc1ccc(C(=O)COc2cccc(/C=C3\Oc4ccc5ccccc5c4C3=O)c2)cc1 assayed_system="SF-539 CNS" observation_type=TGI result="26.3 µM"
molecule="COc1cc(C2SCC(=O)N2c2ccc(-c3ccc(-n4c(-c5ccccc5)nc5ccccc5c4=O)cc3)cc2)cc(OC)c1OC (centres undefined)" assayed_system="SF-539 CNS" observation_type=TGI result="> 100 µM"
molecule=CC(C)OC(=O)NNc1cc(Cl)ccc1Cl assayed_system="SF-539 CNS" observation_type=TGI result="> 100 µM"
molecule="Cc1cc(C)c(C2[C@H]3C(=O)N(c4ccc(Cc5ccc(N6C(=O)[C@@H]7ON(c8ccccc8)C(c8c(C)cc(C)cc8C)[C@@H]7C6=O)cc5)cc4)C(=O)[C@H]3ON2c2ccccc2)c(C)c1 (some centres undefined)" assayed_system="SF-539 CNS" observation_type=TGI result="> 100 µM"
molecule="NC(CS/C(Cl)=C/Cl)C(=O)O (centres undefined)" assayed_system="SF-539 CNS" observation_type=TGI result="> 100 µM"
molecule=COc1ccc(-c2c[nH]c(=S)n2-c2ccc(OC)cc2)cc1 assayed_system="SF-539 CNS" observation_type=TGI result="> 50 µM"
molecule="CC1CCC(=O)C(C(=O)CC2CC(=O)NC(=O)C2)C1 (centres undefined)" assayed_system="SF-539 CNS" observation_type=TGI result="> 100 µM"
molecule=COc1ccc2ncn(-c3cc(O[C@H](C)c4ccccc4Cl)c(C(N)=O)s3)c2c1 assayed_system="SF-539 CNS" observation_type=TGI result="5.54 µM"
molecule=C[C@]12CC[C@H](O)C[C@H]1CC[C@@H]1[C@@H]2CC[C@]2(C)[C@@H](C3=CC(=O)OC3)CC[C@]12O assayed_system="SF-539 CNS" observation_type=TGI result="0.16 µM"
molecule=C=CCCC(=O)CC(O)(C(F)(F)F)C(F)(F)F assayed_system="SF-539 CNS" observation_type=TGI result="> 100 µM"
molecule="CC(=O)Nc1cc2c(s1)CCC1CC(=O)NN=C21 (centres undefined)" assayed_system="SF-539 CNS" observation_type=TGI result="> 100 µM"
molecule="CCC1(C(=O)OC(C)(C)C)OC12C(C)CCCC2C (centres undefined)" assayed_system="SF-539 CNS" observation_type=TGI result="> 100 µM"
molecule=O=C1c2ccccc2-c2nc(-c3cccc([N+](=O)[O-])c3)nnc21 assayed_system="SF-539 CNS" observation_type=TGI result="> 100 µM"
molecule=Nc1c(Cl)ncnc1N[C@@H]1C[C@H]1CO assayed_system="SF-539 CNS" observation_type=TGI result="> 100 µM"
molecule=O=c1oc2ccccc2c(Nc2ccc3c(c2)Oc2ccccc2O3)c1[N+](=O)[O-] assayed_system="SF-539 CNS" observation_type=TGI result="36.4 µM"
molecule="O=C(Nc1cc(Cl)ccc1Cl)C(=O)C(c1cnc2ccccc2n1)[N+](=O)[O-] (centres undefined)" assayed_system="SF-539 CNS" observation_type=TGI result="> 100 µM"
